Reference for the values: patent US12129265B2

Can you tell me IC50 for the items I'm about to list?
Tested on: FaDu cells
Assay details: CellTiter-Glo in vitro cell proliferation assay, Example 8
Type: cell-based, Human
Reported conditions: Homo sapiens, H&N - SC, read-out: Mean IC50
State just the number; it will be interpreted in µM.

GET /values?readout=IC50&system=FaDu cells&item= COc1ccc2c3c([nH]c2c1)C(CC(CC1=NCCc2c1[nH]c1cc(OC)ccc21)c1c(F)c(F)c(F)c(F)c1F)=NCC3
11.7

Query COc1cc(C2CC3(CC4(NCCc5sccc54)C2C2=NCCc4sccc42)NCCc2sccc23)ccc1O (centres unmarked) next
14

* * *

System: L363 cells
Assay details: CellTiter-Glo in vitro cell proliferation assay, Example 8
Assay type: cell-based, Human
Reported conditions: L363, PCL/MM; read-out: Mean IC50
Attribute measured: IC50 (µM)
# output: bare number, implied unit µM

Request the reported IC50 associated with COc1ccc2c3c([nH]c2c1)C(CC(CC1=NCCc2c1[nH]c1cc(OC)ccc21)c1ccc(OC)c(O)c1Br)=NCC3
12.9

Thanks! And COc1ccc2c3c([nH]c2c1)C(CC(CC1=NCCc2c1[nH]c1cc(OC)ccc21)c1ccc(F)cc1)=NCC3 ?
5.15

How about COc1ccc2c3c([nH]c2c1)C(CC(CC1=NCCc2c1[nH]c1cc(OC)ccc21)c1ccccc1OC)=NCC3 ?
2.62

Request: COc1ccc2c3c([nH]c2c1)C(CC(CC1=NCCc2c1[nH]c1cc(OC)ccc21)c1cc(OC)c(O)c([N+](=O)[O-])c1)=NCC3
22.2

One more molecule: COc1ccc2c3c([nH]c2c1)C(CC(CC1=NCCc2c1[nH]c1cc(OC)ccc21)c1cc(F)cc(F)c1)=NCC3
6.12

Same read-out for COc1ccc2c3c([nH]c2c1)C(CC(CC1=NCCc2c1[nH]c1cc(OC)ccc21)c1cc(O)c(OC)c(OC)c1)=NCC3 ?
11.6

Repeat for the following molecule: CCOc1cc(C(CC2=NCCc3c2[nH]c2cc(OC)ccc32)CC2=NCCc3c2[nH]c2cc(OC)ccc32)ccc1O
6.26
